# subject of test: hABL1(pE255K) (Homo sapiens, UniProt P00519, E255K)
# Sequence (P00519 whole entry E255K): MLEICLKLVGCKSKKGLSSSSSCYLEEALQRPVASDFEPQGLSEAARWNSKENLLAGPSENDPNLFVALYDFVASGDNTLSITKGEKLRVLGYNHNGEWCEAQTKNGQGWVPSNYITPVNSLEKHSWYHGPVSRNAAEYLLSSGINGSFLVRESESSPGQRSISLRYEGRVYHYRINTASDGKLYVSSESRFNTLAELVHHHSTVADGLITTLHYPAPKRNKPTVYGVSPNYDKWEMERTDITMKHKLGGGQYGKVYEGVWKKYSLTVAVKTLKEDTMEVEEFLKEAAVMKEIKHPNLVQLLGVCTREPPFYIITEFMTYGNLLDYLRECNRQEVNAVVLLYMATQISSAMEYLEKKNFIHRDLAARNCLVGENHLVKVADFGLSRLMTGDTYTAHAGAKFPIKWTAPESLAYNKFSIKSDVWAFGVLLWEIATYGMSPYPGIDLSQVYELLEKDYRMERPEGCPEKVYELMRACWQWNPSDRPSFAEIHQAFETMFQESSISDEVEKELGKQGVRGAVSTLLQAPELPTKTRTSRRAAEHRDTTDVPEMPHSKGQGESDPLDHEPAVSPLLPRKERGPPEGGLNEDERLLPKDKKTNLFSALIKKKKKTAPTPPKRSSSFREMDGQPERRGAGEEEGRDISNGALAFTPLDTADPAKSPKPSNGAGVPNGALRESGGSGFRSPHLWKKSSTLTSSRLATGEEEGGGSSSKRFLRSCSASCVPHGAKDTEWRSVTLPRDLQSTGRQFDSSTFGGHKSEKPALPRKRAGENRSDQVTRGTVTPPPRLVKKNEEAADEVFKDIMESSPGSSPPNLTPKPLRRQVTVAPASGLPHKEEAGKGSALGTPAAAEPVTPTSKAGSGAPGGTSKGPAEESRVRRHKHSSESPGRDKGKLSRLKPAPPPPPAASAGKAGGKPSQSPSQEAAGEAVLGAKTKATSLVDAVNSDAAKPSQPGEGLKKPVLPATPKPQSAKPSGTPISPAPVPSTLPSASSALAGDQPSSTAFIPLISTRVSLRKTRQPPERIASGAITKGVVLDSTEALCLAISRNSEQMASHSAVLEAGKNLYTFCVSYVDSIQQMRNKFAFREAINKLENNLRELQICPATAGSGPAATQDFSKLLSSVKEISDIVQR
# assay overview: KINOMEscan
pIC50: −log10 of the molar value.
readout kind: pIC50

line_notation=Cc1cn(CCN2CCN(c3ccccc3-c3cc(C#N)cc(C(=O)NCCCN4CCCC4)c3)CC2)c2ccccc12 measured="< 4.70"

###

# subject of test: UniProtKB Q9H2X6
readout kind: IC50

line_notation=Cc1cn(CCN2CCN(c3ccccc3-c3cc(C#N)cc(C(=O)NCCCN4CCCC4)c3)CC2)c2ccccc12 subject_of_test="UniProtKB Q9H2X6" readout_kind=IC50 measured="> 20 µM"

###

# subject of test: hRARα (Homo sapiens)
# Sequence (P10276 whole entry): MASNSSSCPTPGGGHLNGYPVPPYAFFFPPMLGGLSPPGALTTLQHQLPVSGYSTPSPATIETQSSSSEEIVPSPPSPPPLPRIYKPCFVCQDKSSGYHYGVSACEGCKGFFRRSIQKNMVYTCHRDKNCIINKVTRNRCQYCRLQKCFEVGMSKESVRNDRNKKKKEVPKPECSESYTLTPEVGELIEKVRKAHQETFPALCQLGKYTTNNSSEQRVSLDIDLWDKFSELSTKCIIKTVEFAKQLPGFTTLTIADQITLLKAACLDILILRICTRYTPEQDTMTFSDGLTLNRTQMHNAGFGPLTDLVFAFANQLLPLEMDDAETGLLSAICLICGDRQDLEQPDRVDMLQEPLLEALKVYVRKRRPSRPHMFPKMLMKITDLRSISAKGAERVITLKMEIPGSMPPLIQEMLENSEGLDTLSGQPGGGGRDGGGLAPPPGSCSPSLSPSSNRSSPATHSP
readout kind: IC50

molecule="Cc1cn(CCN2CCN(c3ccccc3-c3cc(C#N)cc(C(=O)NCCCN4CCCC4)c3)CC2)c2ccccc12 [LLY-507]" measured="> 10 µM"

###

# subject of test: hTGFBR1 (Homo sapiens, UniProt P36897)
# Sequence (P36897 34-503): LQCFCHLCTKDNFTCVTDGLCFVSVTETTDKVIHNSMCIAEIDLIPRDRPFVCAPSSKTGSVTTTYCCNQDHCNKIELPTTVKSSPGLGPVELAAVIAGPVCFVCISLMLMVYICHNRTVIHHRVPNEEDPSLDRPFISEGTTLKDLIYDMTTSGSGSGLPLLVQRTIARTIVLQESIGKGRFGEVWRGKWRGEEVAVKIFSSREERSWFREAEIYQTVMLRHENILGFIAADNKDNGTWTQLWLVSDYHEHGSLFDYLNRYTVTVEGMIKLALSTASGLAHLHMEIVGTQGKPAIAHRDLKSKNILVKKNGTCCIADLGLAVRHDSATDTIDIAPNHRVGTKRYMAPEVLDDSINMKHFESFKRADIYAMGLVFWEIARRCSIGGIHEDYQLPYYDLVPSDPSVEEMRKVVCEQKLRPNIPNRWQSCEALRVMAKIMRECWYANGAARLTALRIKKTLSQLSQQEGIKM
pIC50: −log10 of the molar value.
readout kind: pIC50

line_notation=Cc1cn(CCN2CCN(c3ccccc3-c3cc(C#N)cc(C(=O)NCCCN4CCCC4)c3)CC2)c2ccccc12 readout_kind=pIC50 measured="< 4.70"

###

# subject of test: hKIT(D816H) (Homo sapiens, UniProt P10721, D816H)
# assay overview: KINOMEscan
readout kind: IC50

line_notation=Cc1cn(CCN2CCN(c3ccccc3-c3cc(C#N)cc(C(=O)NCCCN4CCCC4)c3)CC2)c2ccccc12 measured="> 20 µM"

###

# subject of test: hTYK2(JH2Dom.-pseudokinase) (Homo sapiens)
# Construct: hTYK2(JH2Dom.-pseudokinase)
# Sequence (P29597 589-875 limits assumed): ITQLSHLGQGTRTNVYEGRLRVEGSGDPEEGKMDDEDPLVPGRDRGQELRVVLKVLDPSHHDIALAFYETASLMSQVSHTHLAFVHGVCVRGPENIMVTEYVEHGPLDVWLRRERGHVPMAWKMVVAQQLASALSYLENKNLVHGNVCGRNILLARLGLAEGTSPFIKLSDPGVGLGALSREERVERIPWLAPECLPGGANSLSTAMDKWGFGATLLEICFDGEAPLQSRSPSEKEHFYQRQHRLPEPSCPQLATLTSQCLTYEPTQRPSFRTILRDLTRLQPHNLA
# assay overview: KINOMEscan
pIC50: −log10 of the molar value.
readout kind: pIC50

line_notation=Cc1cn(CCN2CCN(c3ccccc3-c3cc(C#N)cc(C(=O)NCCCN4CCCC4)c3)CC2)c2ccccc12 measured="< 4.70"

###

# subject of test: hYANK1 (Homo sapiens, UniProt Q8WU08)
# Construct: purchased DiscoverX
# Sequence (Q8WU08 whole entry): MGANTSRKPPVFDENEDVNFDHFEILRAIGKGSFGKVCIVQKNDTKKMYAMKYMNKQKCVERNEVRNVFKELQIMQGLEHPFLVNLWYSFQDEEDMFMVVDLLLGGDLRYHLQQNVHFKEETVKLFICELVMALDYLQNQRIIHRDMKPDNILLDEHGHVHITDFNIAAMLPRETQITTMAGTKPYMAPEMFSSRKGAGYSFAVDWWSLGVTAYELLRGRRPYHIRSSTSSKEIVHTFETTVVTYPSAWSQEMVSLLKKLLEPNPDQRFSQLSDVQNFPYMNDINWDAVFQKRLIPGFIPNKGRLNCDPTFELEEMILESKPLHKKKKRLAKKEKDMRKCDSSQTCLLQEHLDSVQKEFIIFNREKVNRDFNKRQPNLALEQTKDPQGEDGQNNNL
# assay overview: KINOMEscan
# Format: binding
pIC50: −log10 of the molar value.
readout kind: pIC50

line_notation=Cc1cn(CCN2CCN(c3ccccc3-c3cc(C#N)cc(C(=O)NCCCN4CCCC4)c3)CC2)c2ccccc12 readout_kind=pIC50 measured="< 4.70"

###

# subject of test: hCAMK1G (Homo sapiens, UniProt Q96NX5)
# Sequence (Q96NX5 whole entry): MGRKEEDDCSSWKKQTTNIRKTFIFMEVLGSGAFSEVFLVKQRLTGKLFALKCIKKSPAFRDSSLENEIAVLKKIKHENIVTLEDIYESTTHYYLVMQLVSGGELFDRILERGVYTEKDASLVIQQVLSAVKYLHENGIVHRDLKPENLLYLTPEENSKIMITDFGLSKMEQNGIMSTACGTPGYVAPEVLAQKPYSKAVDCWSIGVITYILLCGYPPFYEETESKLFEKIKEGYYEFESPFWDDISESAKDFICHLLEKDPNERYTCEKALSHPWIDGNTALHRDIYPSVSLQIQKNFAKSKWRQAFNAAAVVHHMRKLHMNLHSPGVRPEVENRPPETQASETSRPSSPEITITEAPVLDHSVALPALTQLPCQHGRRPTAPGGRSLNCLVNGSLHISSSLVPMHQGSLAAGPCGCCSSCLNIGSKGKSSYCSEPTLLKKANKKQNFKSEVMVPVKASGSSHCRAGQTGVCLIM
readout kind: IC50

line_notation=Cc1cn(CCN2CCN(c3ccccc3-c3cc(C#N)cc(C(=O)NCCCN4CCCC4)c3)CC2)c2ccccc12 subject_of_test="hCAMK1G (Homo sapiens, UniProt Q96NX5)" measured="> 20 µM"

###

# subject of test: hALK(L1196M) (Homo sapiens, UniProt Q9UM73, L1196M)
# assay overview: KINOMEscan
readout kind: IC50

line_notation=Cc1cn(CCN2CCN(c3ccccc3-c3cc(C#N)cc(C(=O)NCCCN4CCCC4)c3)CC2)c2ccccc12 measured="> 20 µM"

###

# subject of test: UniProt Q9UHD2
readout kind: IC50

compound="Cc1cn(CCN2CCN(c3ccccc3-c3cc(C#N)cc(C(=O)NCCCN4CCCC4)c3)CC2)c2ccccc12 [LLY-507]" readout_kind=IC50 measured="> 20 µM"

###

Target protein (sequence): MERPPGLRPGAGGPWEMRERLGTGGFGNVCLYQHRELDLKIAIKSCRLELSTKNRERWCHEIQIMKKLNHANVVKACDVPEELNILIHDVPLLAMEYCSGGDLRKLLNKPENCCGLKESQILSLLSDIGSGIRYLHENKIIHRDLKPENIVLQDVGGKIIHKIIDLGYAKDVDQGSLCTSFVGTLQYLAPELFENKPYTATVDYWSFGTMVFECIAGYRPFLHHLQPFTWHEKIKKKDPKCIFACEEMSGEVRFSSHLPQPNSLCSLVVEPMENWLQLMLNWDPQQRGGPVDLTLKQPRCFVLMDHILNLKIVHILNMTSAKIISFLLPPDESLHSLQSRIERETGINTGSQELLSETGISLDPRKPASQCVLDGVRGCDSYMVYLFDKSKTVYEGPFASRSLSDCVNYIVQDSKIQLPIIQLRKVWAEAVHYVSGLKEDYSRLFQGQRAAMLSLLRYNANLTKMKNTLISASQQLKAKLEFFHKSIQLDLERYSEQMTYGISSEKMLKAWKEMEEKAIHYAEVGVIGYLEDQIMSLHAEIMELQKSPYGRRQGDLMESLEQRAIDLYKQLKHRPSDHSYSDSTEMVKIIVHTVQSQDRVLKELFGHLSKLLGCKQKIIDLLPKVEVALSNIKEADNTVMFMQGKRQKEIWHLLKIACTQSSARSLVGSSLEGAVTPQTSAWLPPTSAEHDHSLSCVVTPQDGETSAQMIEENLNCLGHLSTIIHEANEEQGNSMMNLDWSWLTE
pIC50: −log10 of the molar value.
readout kind: pIC50

compound="Cc1cn(CCN2CCN(c3ccccc3-c3cc(C#N)cc(C(=O)NCCCN4CCCC4)c3)CC2)c2ccccc12 [LLY-507]" measured="< 4.70"

###

# subject of test: hDCAMKL1 (Homo sapiens, UniProt O15075)
# Sequence (O15075 whole entry): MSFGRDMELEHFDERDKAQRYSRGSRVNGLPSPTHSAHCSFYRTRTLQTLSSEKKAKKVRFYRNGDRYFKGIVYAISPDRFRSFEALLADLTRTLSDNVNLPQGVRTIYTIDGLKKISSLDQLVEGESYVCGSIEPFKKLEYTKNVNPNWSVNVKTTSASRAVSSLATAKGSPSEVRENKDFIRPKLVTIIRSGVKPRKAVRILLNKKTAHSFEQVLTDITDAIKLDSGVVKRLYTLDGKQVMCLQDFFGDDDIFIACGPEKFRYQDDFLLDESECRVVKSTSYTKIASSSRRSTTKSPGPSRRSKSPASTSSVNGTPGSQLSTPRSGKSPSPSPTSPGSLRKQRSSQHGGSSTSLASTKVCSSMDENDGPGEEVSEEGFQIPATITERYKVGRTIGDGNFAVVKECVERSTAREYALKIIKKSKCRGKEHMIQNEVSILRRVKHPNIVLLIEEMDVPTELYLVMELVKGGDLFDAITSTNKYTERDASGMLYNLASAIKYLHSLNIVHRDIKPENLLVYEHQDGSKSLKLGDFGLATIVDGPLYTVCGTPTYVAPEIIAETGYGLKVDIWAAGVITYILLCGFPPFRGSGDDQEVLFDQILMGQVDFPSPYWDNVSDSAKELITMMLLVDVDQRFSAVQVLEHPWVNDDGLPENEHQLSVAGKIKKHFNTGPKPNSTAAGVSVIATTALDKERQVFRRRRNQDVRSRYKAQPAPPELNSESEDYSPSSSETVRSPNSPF
readout kind: IC50

line_notation=Cc1cn(CCN2CCN(c3ccccc3-c3cc(C#N)cc(C(=O)NCCCN4CCCC4)c3)CC2)c2ccccc12 measured="> 20 µM"

###

# subject of test: hADCK4 (Homo sapiens, UniProt Q96D53)
# Sequence (Q96D53 1-544): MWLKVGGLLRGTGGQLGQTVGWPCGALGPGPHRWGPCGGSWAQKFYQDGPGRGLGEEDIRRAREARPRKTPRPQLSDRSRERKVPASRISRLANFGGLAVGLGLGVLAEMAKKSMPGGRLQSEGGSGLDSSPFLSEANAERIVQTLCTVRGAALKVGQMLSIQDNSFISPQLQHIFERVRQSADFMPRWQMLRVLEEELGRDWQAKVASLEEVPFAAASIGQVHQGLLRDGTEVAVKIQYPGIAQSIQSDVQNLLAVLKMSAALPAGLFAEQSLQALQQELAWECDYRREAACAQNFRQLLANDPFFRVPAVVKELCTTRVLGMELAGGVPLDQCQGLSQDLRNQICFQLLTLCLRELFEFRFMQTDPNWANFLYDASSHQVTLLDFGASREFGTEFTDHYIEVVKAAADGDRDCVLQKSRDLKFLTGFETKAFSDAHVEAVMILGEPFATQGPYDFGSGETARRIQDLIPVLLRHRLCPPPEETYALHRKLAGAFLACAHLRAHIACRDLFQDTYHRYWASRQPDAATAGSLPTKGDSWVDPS
readout kind: IC50

line_notation=Cc1cn(CCN2CCN(c3ccccc3-c3cc(C#N)cc(C(=O)NCCCN4CCCC4)c3)CC2)c2ccccc12 subject_of_test="hADCK4 (Homo sapiens, UniProt Q96D53)" readout_kind=IC50 measured="> 20 µM"

###

# subject of test: hROCK1 (Homo sapiens, UniProt Q13464)
# Sequence (Q13464 whole entry): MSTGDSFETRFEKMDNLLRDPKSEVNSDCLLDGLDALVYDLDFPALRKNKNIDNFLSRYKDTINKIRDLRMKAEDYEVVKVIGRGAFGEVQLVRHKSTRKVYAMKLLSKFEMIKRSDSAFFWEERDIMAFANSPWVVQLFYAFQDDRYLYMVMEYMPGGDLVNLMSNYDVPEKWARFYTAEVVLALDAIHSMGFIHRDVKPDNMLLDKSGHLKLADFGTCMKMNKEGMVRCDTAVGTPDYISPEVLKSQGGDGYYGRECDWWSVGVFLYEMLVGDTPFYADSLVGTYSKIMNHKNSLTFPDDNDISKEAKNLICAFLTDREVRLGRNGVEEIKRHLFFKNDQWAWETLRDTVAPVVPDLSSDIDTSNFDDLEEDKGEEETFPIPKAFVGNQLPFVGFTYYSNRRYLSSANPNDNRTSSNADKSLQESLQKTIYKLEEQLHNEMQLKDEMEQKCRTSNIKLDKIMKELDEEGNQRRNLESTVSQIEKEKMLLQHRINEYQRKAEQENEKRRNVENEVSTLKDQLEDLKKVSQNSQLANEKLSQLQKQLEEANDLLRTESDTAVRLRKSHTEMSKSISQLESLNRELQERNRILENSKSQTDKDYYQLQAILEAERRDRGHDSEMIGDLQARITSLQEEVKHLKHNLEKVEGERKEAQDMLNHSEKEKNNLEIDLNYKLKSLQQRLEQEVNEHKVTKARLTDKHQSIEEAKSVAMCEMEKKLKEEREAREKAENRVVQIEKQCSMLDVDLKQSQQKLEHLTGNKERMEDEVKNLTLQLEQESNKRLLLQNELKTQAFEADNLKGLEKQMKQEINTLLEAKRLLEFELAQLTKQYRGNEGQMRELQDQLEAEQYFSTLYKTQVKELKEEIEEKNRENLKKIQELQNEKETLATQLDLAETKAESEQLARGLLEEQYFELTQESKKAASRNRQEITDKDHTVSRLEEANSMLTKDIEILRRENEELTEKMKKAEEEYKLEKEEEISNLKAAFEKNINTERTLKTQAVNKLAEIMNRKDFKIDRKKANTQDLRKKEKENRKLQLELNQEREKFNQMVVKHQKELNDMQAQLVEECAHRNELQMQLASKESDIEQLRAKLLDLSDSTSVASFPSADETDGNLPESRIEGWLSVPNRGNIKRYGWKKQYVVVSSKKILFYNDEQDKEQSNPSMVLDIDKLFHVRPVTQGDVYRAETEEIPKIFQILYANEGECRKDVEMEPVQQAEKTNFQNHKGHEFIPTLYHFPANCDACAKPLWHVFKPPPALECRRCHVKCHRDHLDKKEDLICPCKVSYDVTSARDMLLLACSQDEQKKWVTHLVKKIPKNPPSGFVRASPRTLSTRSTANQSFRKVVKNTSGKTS
pIC50: −log10 of the molar value.
readout kind: pIC50

line_notation=Cc1cn(CCN2CCN(c3ccccc3-c3cc(C#N)cc(C(=O)NCCCN4CCCC4)c3)CC2)c2ccccc12 measured="< 4.70"

###

# subject of test: UniProtKB Q06418
# Sequence (Q06418 41-890): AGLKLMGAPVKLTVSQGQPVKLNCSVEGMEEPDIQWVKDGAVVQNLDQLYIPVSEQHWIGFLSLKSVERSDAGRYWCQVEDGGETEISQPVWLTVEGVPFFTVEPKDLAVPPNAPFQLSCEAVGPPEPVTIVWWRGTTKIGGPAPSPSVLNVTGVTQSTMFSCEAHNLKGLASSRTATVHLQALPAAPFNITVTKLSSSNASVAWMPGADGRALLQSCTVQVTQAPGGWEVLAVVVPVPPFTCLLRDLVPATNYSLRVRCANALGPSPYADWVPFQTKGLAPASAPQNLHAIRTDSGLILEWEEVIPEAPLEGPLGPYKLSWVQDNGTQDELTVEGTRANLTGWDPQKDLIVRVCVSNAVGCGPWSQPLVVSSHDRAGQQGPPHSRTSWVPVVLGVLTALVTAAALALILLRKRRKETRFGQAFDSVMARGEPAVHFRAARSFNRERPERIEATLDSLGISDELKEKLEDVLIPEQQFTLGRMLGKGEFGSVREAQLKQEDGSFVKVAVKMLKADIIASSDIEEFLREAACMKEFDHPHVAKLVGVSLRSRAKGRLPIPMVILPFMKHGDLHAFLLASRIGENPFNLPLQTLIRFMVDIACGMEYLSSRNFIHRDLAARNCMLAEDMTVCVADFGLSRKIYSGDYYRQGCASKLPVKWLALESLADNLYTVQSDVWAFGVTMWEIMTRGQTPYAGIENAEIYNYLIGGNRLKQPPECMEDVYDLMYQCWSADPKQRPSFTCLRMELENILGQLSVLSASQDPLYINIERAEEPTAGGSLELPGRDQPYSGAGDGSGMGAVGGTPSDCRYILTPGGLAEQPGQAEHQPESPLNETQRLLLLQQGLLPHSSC
pIC50: −log10 of the molar value.
readout kind: pIC50

compound="Cc1cn(CCN2CCN(c3ccccc3-c3cc(C#N)cc(C(=O)NCCCN4CCCC4)c3)CC2)c2ccccc12 [LLY-507]" measured="< 4.70"
